GI50 values, listed per item
# Tested on: LOX IMVI
# assay info: NCI tumour cell line growth inhibition, 48 h
The source made the active and inactive calls. No stated cut-off is given here; in the data, active = GI50 up to about 1.1 µM and inactive = higher.

Below, each entry is followed by its recorded GI50 result.
{"compound": "Cc1cn(CC2=NC3CCCCC3N2)c(=O)[nH]c1=O (stereo not drawn)", "result": "> 100 µM (inactive)"}
{"compound": "N#C/N=C(/N)c1sc2nc3c(c(-c4ccc(Br)cc4)c2c1N)CCCC3", "result": "7.93 µM (inactive)"}
{"compound": "CC1(C)C(CCO)CC1n1ccc(=O)[nH]c1=O (stereo not drawn)", "result": "> 100 µM (inactive)"}
{"compound": "CN1C(=O)c2ccccc2OC12C=Cc1c(ccc3ccccc13)O2 (stereo not drawn)", "result": "5.93 µM (inactive)"}
{"compound": "NC(=O)c1sc2nc3ccccc3n2c1N", "result": "36.1 µM (inactive)"}

(Q) If you can, please state the reported GI50 value of COc1cc(-c2c3c([nH]c(=O)c2C#N)-c2cc([N+](=O)[O-])ccc2CCC3)cc(OC)c1OC .
(A) 15.1 µM (inactive)

(Q) And the next one, O=C(O)c1cccc(S(=O)(=O)NN2C(=O)CSC2c2c(O)ccc3ccccc23)c1 (stereo not drawn) ?
(A) 27.4 µM (inactive)

(Q) Can you check Cc1cn2c(/C=C3/C(=O)Nc4cccc(Cl)c43)c(Cl)nc2s1 next?
(A) > 100 µM (inactive)

(Q) Similarly, c1ccc2cc3[s+]snc3cc2c1 ?
(A) > 100 µM (inactive)

(Q) Please answer likewise for Cc1c(C(=O)C/C(=N/NC(=O)CC#N)C(N)=O)[n+]([O-])c2ccccc2[n+]1[O-]
(A) 34.3 µM (inactive)

(Q) What do we get for Cc1ccc(S(=O)(=O)NC(=O)NCc2ccc(S(N)(=O)=O)cc2)cc1 ?
(A) > 100 µM (inactive)

(Q) What do you get for N#CC(C#N)=c1ccc(=C2N3CCCC3CN2C23CC4CC(CC(C4)C2)C3)cc1 (stereo not drawn) ?
(A) > 100 µM (inactive)

(Q) Quick one: Cc1ccc(Nc2n[nH]c(=S)s2)cc1C
(A) > 100 µM (inactive)

(Q) Note, next up: CCOC(=O)c1ccc2c(=O)n3c(C(=O)OCC)ccc3c(=O)n12
(A) > 100 µM (inactive)

(Q) And for O=C(CCc1ccccc1)NCCc1ccc(O)c(O)c1 ?
(A) 35.6 µM (inactive)

(Q) // repeat for Oc1c(C(Nc2ccccn2)c2ccccc2)ccc2cccnc12 (stereo not drawn) and report
(A) 2.77 µM (inactive)

(Q) Lookup Nc1nc(Cl)cc(NCC2(O)CC(CO)C2)n1 (stereo not drawn)
(A) > 100 µM (inactive)

(Q) Same read-out for CNC1(c2cc3ccccc3s2)CCCCC1 ?
(A) 19.9 µM (inactive)

(Q) For COc1cc(C2SCC(=O)N2c2cc(Cl)c(Cl)cc2Cl)cc(OC)c1OC (stereo not drawn) then?
(A) 33.7 µM (inactive)

###

# Tested on: A549
# assay info: NCI tumour cell line growth inhibition, 48 h
Activity calls are given as the source filed them. Rule as the data show it: active = GI50 up to about 1.1 µM and inactive = higher.
# reported GI50; entries follow

{"molecule": "CCOC(=O)c1nc2cc(C(F)(F)F)ccc2nc1Oc1ccc(OC)cc1", "GI50": "> 100 µM (inactive)"}
{"molecule": "CC(=O)Nc1cccc(/N=N/N(C)C)c1", "GI50": "> 100 µM (inactive)"}
{"molecule": "Cc1[nH]c2ccccc2c1-c1cc(-c2cc(-c3c(C)[nH]c4ccccc34)on2)no1", "GI50": "> 100 µM (inactive)"}
{"molecule": "COc1ccc(C(=O)C(C(=O)CC(=O)Nc2cccc(C(F)(F)F)c2)c2ccc(OC)cc2)cc1 (stereo not given)", "GI50": "> 100 µM (inactive)"}

(Q) So what's the measured GI50 for this one? CCC(c1c[nH]c2ccc(Br)cc12)c1c[nH]c2ccc(Br)cc12
(A) 3.72 µM (inactive)

Provenance of the data: ChEMBL document CHEMBL1201862
